In this section we review reported concentration at 24 h values for a set of molecules.
Assay: Cmin in Sprague-Dawley rat at 10 mg/kg,po measured after 24 hrs
Format: ADME, organism-based
Conditions: Sprague-Dawley, in vivo, read-out: Cmin
Report the value in ng/mL with no unit label.

These solved cases illustrate the format of a correct answer.
NCc1cccc(-n2nc(C(F)(F)F)cc2C(=O)Nc2cc(C(N)(CCC3CC3)c3cccc(C(N)=O)c3)ccc2F)c1 (configuration not stated) = 9.4
NCc1cccc(-n2nc(C(F)(F)F)cc2C(=O)Nc2cc(C(O)(CCC3CC3)c3cccnc3)ccc2F)c1 (stereo in doubt; 20) = 13
N#Cc1ccc(C(N)(CCC2CC2)c2ccc(F)c(NC(=O)c3cc(C(F)(F)F)nn3-c3cccc(CN)c3)c2)cc1 (stereo in doubt; 41) = 40.1
NCc1cccc(-n2nc(C(F)(F)F)cc2C(=O)Nc2cc(C(N)(CCC3CC3)c3ccccn3)ccc2F)c1 (stereo in doubt; 29) = 15.1
NCc1cccc(-n2nc(C(F)(F)F)cc2C(=O)Nc2cc(C(N)(CCC3CC3)c3ccncc3)ccc2F)c1 (stereo in doubt; 33) = 22.9
Cc1cc(C(N)(CCC2CC2)c2ccc(F)c(NC(=O)c3cc(C(F)(F)F)nn3-c3cccc(CN)c3)c2)ccn1 (stereo in doubt; 35) = 24.5

--- query ---
Data request: Read the entry N#Cc1cccc(C(N)(CCC2CC2)c2ccc(F)c(NC(=O)c3cc(C(F)(F)F)nn3-c3cccc(CN)c3)c2)n1 (configuration not stated) and write its reported concentration at 24 h.
Data returned: 53.3
